TARGET_OR_SYSTEM: human recombinant A3AR (expressed in HEK-293 cells) (Homo sapiens)
Construct: host or cells: HEK-293 cells
Sequence (P0DMS8 whole entry): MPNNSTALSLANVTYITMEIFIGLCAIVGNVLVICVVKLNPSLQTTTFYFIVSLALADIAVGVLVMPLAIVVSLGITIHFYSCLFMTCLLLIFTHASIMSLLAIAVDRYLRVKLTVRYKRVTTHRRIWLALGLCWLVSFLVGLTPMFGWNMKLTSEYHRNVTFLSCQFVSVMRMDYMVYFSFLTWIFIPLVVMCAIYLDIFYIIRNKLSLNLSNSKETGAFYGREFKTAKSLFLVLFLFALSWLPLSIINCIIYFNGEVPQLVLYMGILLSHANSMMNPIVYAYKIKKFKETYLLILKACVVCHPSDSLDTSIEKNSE
TEST_PROTOCOL: Adenosine receptors antagonism assay (Eurofins), [125I]-AB-MECA radioligand competition
Type: binding
CONDITION_CONTEXT: [125I]-AB-MECA 0.15 nM, r.t., 120 min; IC50 from dose-response curves; read-out: Potency Class A3AR
Would you mind telling me the reported IC50 of each entry?

The measured IC50 that CC(C)c1nnc2c(NCc3ccc(-c4ccncc4)cc3)cc(N[C@H](CO)[C@@H](C)O)nn12 showed for human recombinant A3AR (expressed in HEK-293 cells) (Homo sapiens) is 100 to 1000 nM

Summary line: Cc1cc(C)nc(CNc2cc(NCc3ccccc3)c3nnc(C(C)C)n3n2)n1 , human recombinant A3AR (expressed in HEK-293 cells) (Homo sapiens), reported IC50 = 100 to 1000 nM

Measured on human recombinant A3AR (expressed in HEK-293 cells) (Homo sapiens), c1ccc(CNc2cc(NCc3ccccn3)c3nnc(C4CC4)n3n2)cc1 has a documented IC50 of 1 to 10 nM

Assay human recombinant A3AR (expressed in HEK-293 cells) (Homo sapiens), sample CCC(CC)Nc1cc(Nc2ccc(OC)nc2)c2nnc(C(C)C)n2n1 , IC50 read: < 1 nM

# lookup: CCC(CC)Nc1cc(NCc2ccccn2)c2nnc(-c3cccnc3)n2n1 on human recombinant A3AR (expressed in HEK-293 cells) (Homo sapiens), IC50 = 10 to 100 nM

Known value: human recombinant A3AR (expressed in HEK-293 cells) (Homo sapiens) IC50 of the molecule CC[C@H](CO)Nc1cc(NCc2ccccc2)c2nnc(-c3ccccc3)n2n1 equals 10 to 100 nM

Tested on human recombinant A3AR (expressed in HEK-293 cells) (Homo sapiens): CCC(CC)Nc1cc(Nc2ncccc2OC)c2nnc(C(C)C)n2n1 . Observed IC50: 10 to 100 nM

// returns IC50 for c1ccc(CNc2cc(N[C@@H]3CCOC3)nn3c(C4CC4)nnc23)nc1 with human recombinant A3AR (expressed in HEK-293 cells) (Homo sapiens); value = 100 to 1000 nM

Bench note, human recombinant A3AR (expressed in HEK-293 cells) (Homo sapiens): entry CCC(CC)Nc1cc(NCc2cccnn2)c2nnc(C(C)C)n2n1 , its IC50 = 1 to 10 nM
